Values were extracted from paper PMC7826789.

test system: MAPKAPK5; details: Compound Concentration (nM):1000;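 note: KINOMEscan scanMAX binding as percent activity remaining versus control; lower means stronger binding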
measuredEndpoint: Percent Control

> print(dat)
                                    compound  reportedmeasurement
 1  COc1cc(/C=N/Nc2ncnc3[nH]ncc23)ccc1O [GW578748X]                 100%
 2  NS(=O)(=O)c1ccc(N/N=C2\C(=O)Nc3ccc(C(=O)NCCc4c[nH]cn4)cc32)cc1 [GW300660X]                 100%
 3  Cl.O=C(O[C@H]1CN[C@H](C#Cc2cc3ncnc(Nc4ccc5c(cnn5Cc5ccccc5)c4)c3s2)C1)N1CCOCC1 [GSK200398A]                  90%
 4  Cl.O=S1CCN(Cc2ccc(-c3ccc4ncnc(Nc5ccc(OCc6ccccc6)c(F)c5)c4c3)o2)CC1 [GW576924A]                  98%
 5  CC(C)COC(=O)c1ccc2c(c1)/C(=C/Nc1ccc(S(N)(=O)=O)cc1)C(=O)N2 [GW416981X]                 100%
 6  COc1ccc2[nH]c3c4[nH]c5ccc(OC)cc5c4c4c(c3c2c1)C(=O)NC4=O [GW296115X]                  90%
 7  CCS(=O)(=O)c1ccc(OC)c(Nc2ncc(-c3cccc(F)c3)o2)c1 [GW621970X]                  94%
 8  CCn1c(-c2nonc2N)nc2c(C#CC(C)(C)O)nc(OCCNC)cc21.Cl                 100%
 9  NS(=O)(=O)c1ccc(N/N=C2\C(=O)Nc3ccc(-c4cnco4)cc32)cc1                 100%
10  COc1ccc2cc(-c3c(-c4ccncc4)nc(-c4ccc(S(C)(=O)=O)cc4C)n3C)ccc2c1                  95%
11  Cl.c1ccc(Cc2nc3ccc(Nc4ncnc5ccccc45)cc3[nH]2)cc1 [GR269666A]                 100%
12  O=C(Nc1n[nH]c2nc(-c3ccc(O)cc3)c(Br)cc12)C1CC1                 100%
13  Cl.O=C(Nc1ccc(Oc2ccc3[nH]c(NC(=O)c4ccccc4)nc3c2)cc1)Nc1cc(C(F)(F)F)ccc1F [GW709042A]                 100%
14  O=C1Nc2ccc(C(=O)c3ccco3)cc2C1=Cc1cc(Cl)c(O)c(Cl)c1 [GW406108X]                 100%
15  NS(=O)(=O)c1ccc(Nc2ncc(-c3ccccc3)o2)cc1 [GW572399X]                 100%
16  Cc1cc(O)cc(C)c1/C=C/c1cncc(C(N)=O)c1 [GW435821X]                 100%
17  COc1cc(N2CCN(C(C)C)CC2)ccc1Nc1nc(Nc2ccc(F)cc2C(=O)NC[C@@H](O)CO)c2cc[nH]c2n1 [GSK1392956A]                  94%

###

test system: JAK1(JH1domain-catalytic); settings: Compound Concentration (nM):1000
measuredEndpoint: Percent Control (%)

> print(dat)
                                    compound  measuredendpoint  outputunit  reportedmeasurement
 1  CC1=C(C(=O)Nc2ccc3[nH]ncc3c2)C(c2ccc3ccccc3c2)CC(=O)N1 (stereo not shown) [GSK270822A]   Percent Control           %                   82
 2  Cc1cc(O)cc(C)c1/C=C/c1cncc(C(N)=O)c1 [GW435821X]   Percent Control           %                  100
 3  CCc1ccc(Oc2nccc(-c3c(-c4ccc(F)cc4)ncn3C3CCNCC3)n2)cc1 [SB-242719]   Percent Control           %                   95
 4  CCS(=O)(=O)c1ccc(OC)c(Nc2ncc(-c3cccc(OC)c3)o2)c1 [GW580509X]   Percent Control           %                  100
 5  Cl.c1ccc(Cc2nc3ccc(Nc4ncnc5ccccc45)cc3[nH]2)cc1 [GR269666A]   Percent Control           %                  100
 6  NS(=O)(=O)c1ccc(N/N=C2\C(=O)Nc3ccc(C(=O)NCCc4c[nH]cn4)cc32)cc1 [GW300660X]   Percent Control           %                  100
 7  NS(=O)(=O)c1ccc(N/N=C2\C(=O)Nc3ccc(C(=O)NCc4ccncc4)cc32)cc1 [GW300657X]   Percent Control           %                   88
 8  NS(=O)(=O)c1ccc(N/N=C2\C(=O)Nc3ccc(-c4cnco4)cc32)cc1 [GW276655]   Percent Control           %                  100
 9  CC1=C(C(=O)Nc2ccc3[nH]ncc3c2)C(c2ccc(Cl)c(Cl)c2)CC(=O)N1 (stereo not shown) [GSK299115A]   Percent Control           %                   41
10  COc1cc(/C=N/Nc2ncnc3[nH]ncc23)ccc1O [GW578748X]   Percent Control           %                  100
11  COC(=O)Nc1nc2ccc(Oc3ccc(NC(=O)Nc4cc(C(F)(F)F)ccc4F)cc3)cc2s1.Cl [GW693917A]   Percent Control           %                   71
12  Cl.O=S1CCN(Cc2ccc(-c3ccc4ncnc(Nc5ccc(OCc6ccccc6)c(F)c5)c4c3)o2)CC1 [GW576924A]   Percent Control           %                  100
13  COc1cccc(-c2c[nH]c3c(N/N=C/c4ccncc4)ncnc23)c1 [GW814408X]   Percent Control           %                   75
14  Cl.O=C(Nc1ccc(Oc2ccc3[nH]c(NC(=O)c4ccccc4)nc3c2)cc1)Nc1cc(C(F)(F)F)ccc1F [GW709042A]   Percent Control           %                   99
15  C/C(Nc1ccc(S(N)(=O)=O)cc1)=C1/C(=O)Nc2ccccc21 [GW335962X]   Percent Control           %                  100
16  COc1ccc2c(-c3ccnc(Nc4cccc(OC(F)(F)F)c4)n3)cnn2n1 [GW810372X]   Percent Control           %                  100
17  COc1ccc2[nH]c3c4[nH]c5ccc(OC)cc5c4c4c(c3c2c1)C(=O)NC4=O [GW296115X]   Percent Control           %                  100
18  NS(=O)(=O)c1ccc(Nc2ncc(-c3ccccc3)o2)cc1 [GW572399X]   Percent Control           %                  100
19  NS(=O)(=O)c1ccc(N/N=C2\C(=O)Nc3ccc(Cl)cc32)cc1 [GW280670X]   Percent Control           %                  100
